- method: Pharmacokinetic evaluation following a single oral and intravenous administration
- Format: in vivo, CD1 mouse
- condition context: CD1, mouse, plasma, po, 5 mg/kg, Table 6, PO Dose: 5 mg/kg, mean; read-out: AUCInf, Mean
value type: AUC(0-inf) (ng·h/mL)
Give the value in ng·h/mL but do not write ng·h/mL after it.

Query: Report AUC(0-inf) for CNCc1ccc(C[C@H](NC(C)=O)c2nnc(-c3cccc(OC(F)(F)F)c3)s2)cc1 please.
Result: 2190

----------
- method: Pharmacokinetic evaluation following a single oral and intravenous administration
- Format: in vivo, CD1 mouse
- condition context: CD1, mouse, plasma, iv, 1 mg/kg, Table 3, IV Dose: 1 mg/kg, 8 h, Mouse 1; read-out: Concentration
value type: concentration at 8 h
Hey, just the number and the unit after it is fine.

Query: Report concentration at 8 h for CNCc1ccc(C[C@H](NC(C)=O)c2nnc(-c3cccc(OC(F)(F)F)c3)s2)cc1 please.
Result: 16.9 ng/mL
